test: rodent pharmacokinetics in male C57BL/6 mice (IV, PO, IP); type: in vivo, mouse; conditions: mouse, in vivo; male C57BL/6 mice, IP, 9.69 mg/kg
quantity_kind: Tmax (min)
Give bare numbers, in min.

Tmax in this record for COc1ccc(-c2cc(NCCCN3CCCCC3)c3ccccc3n2)cc1 [Compound D1] : 19.8

###

assay: rodent pharmacokinetics in male C57BL/6 mice (IV, PO, IP); format: in vivo, mouse; settings: male, C57BL/6, mouse, in vivo, iv, […]
quantity_kind: clearance (mL/min/kg)
One number for each entry, in mL/min/kg.

clearance in this record for COc1ccc(-c2cc(NCCCN3CCCCC3)c3ccccc3n2)cc1 [Compound D1] : 25.8

Reference for the values: patent US10626094B2
